target: Cytochrome P450 1A2 (Homo sapiens) (UniProt P05177); experiment: Cytochrome P450 Family 1 Subfamily A Member 2 (CYP1A2) small molecule antagonists: luciferase reporter qHTS assay (AID 1671199); settings: P450-Glo CYP1A2 enzyme, luciferin luminescence, 1 h; series mostly up to 115 µM; further: nearly all actives have a fitted effect of over 50% in size
Sequence (P05177 whole entry, looked up): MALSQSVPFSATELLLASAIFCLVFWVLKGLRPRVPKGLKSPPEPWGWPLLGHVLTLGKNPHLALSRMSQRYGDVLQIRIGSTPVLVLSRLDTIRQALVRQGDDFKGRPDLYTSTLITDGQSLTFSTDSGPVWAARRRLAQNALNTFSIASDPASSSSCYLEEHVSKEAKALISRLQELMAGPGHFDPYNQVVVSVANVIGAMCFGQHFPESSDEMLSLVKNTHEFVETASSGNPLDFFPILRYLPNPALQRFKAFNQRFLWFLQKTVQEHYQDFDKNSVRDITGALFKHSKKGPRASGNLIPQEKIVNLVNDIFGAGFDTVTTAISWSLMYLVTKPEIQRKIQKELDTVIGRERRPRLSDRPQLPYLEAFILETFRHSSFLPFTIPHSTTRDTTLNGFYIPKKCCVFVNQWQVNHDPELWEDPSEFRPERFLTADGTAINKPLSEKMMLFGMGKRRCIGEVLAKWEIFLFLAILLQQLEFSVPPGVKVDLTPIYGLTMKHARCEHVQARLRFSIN
Results filed as inconclusive are left out. Activity calls are given as the source filed them. The call rests on the fitted dose curve; in most records, active means well fitted inhibition curve with a large enough effect in the repeat runs; inconclusive means weak or mixed curves; inactive means no such curve, though single readings can be large or run the other way.
Response enum: active, inactive

Below are worked cases with known answers.
> print(dat)
                                   molecule  classlabel
1         O=P(O)(O)CN(CP(=O)(O)O)CP(=O)(O)O    inactive
2                       Cc1cccc2sc3nncn3c12      active
3                 CCCC(C)(COC(N)=O)COC(N)=O    inactive
4               Clc1nc(Cl)nc(Nc2ccccc2Cl)n1    inactive
5    COc1cccc([C@@]2(O)CCCC[C@@H]2CN(C)C)c1    inactive
6  CC(Cc1ccccc1)NCCn1cnc2c1c(=O)n(C)c(=O)n2C (stereo not drawn)    inactive

Dear all, I need the recorded test outcome for CC#Cc1cc(C)nc(Nc2ccccc2)n1 , thank you.
active

Dear all, I need the recorded test outcome for C=CCc1cc(OC)c2c(c1)OCO2 , thank you.
active

Dear all, I need the recorded test outcome for C=C1C[C@@H]2[C@H](CC[C@]3(C)C(=O)CC[C@@H]23)[C@@]2(C)C=CC(=O)C=C12 , thank you.
inactive

Dear all, I need the recorded test outcome for CCSC(=O)Cl , thank you.
inactive

Dear all, I need the recorded test outcome for O=C(NC(=O)c1c(F)cccc1F)Nc1cc(Cl)c(F)c(Cl)c1F , thank you.
active

Dear all, I need the recorded test outcome for COc1ccccc1OC , thank you.
inactive

Dear all, I need the recorded test outcome for CCC(C)(C#N)N=NC(C)(C#N)CC (stereo not drawn) , thank you.
inactive
